# Tested on: Aβ42 production in H4 cells stably transfected with APP751 containing the Swedish mutation (H4 APP751 SWE clone 8.20)
# Measurement notes: Cellular assay for inhibition of Aβ1-42 production (H4 APP751 SWE clone 8.20)
# Assay type: cell-based
# Condition context: H4 APP751 SWE clone 8.20 cells, 19 h incubation; Table 5B, 6-heterocyclic thiazine examples
Form field: log10 IC50 (one value per entry).
Value kind: log10 IC50 (log10 of the value in nM)

- Compound: "CC#Cc1cncc(-c2csc([C@@H]3C[C@@H](c4c(C)noc4C)SC(N)=N3)c2)c1 (racemic)"
  log10 IC50: 1.78
- Compound: "Cc1noc(C)c1[C@@H]1C[C@@](C)(c2cc(-c3cnc(S(C)(=O)=O)nc3)c(F)cc2F)N=C(N)S1"
  log10 IC50: 2.91
- Compound: "Cc1n[nH]c(C)c1[C@@H]1C[C@@H](c2cccc(-c3cncnc3)c2)N=C(N)S1 (racemic)"
  log10 IC50: 3.85
- Compound: "NC1=N[C@H](c2cccc(-c3cncnc3)c2)C[C@@H](c2cccnc2)S1 (racemic)"
  log10 IC50: 3.89
- Compound: "Cc1noc(C)c1[C@@H]1C[C@@](C)(c2cc(F)c(F)c(F)c2)N=C(N)S1"
  log10 IC50: 2.92
- Compound: "COc1ncc(-c2cc([C@]3(C)C[C@@H](c4c(C)noc4C)SC(N)=N3)c(F)cc2F)cc1Cl"
  log10 IC50: 2.58
- Compound: "Cc1noc(C)c1[C@@H]1C[C@@H](c2cc(NC(=O)c3ccc(Cl)cn3)ccc2F)N=C(N)S1 (racemic) [Example 38]"
  log10 IC50: 1.04

====

# Tested on: Aβ42 production in H4 cells stably transfected with APP751 containing the Swedish mutation (H4 APP751 SWE clone 8.20)
# Measurement notes: Cellular assay for inhibition of Aβ1-42 production (H4 APP751 SWE clone 8.20)
# Format: cell-based
# Condition context: H4 APP751 SWE clone 8.20 cells, 19 h incubation; Table 5B, 6-heterocyclic thiazine examples
pIC50: −log10 of the molar value.
Quick reference: pIC50 of the listed items.
Value kind: pIC50

- Compound: "Cc1nocc1[C@@H]1C[C@@](C)(c2ccc(F)cc2F)N=C(N)S1 [Example 61]"
  Value kind: "pIC50"
  Readout relation: "="
  Result number: 6.52
- Compound: "Cc1nc([C@@H]2C[C@@](C)(c3cc(-c4cncnc4)c(F)cc3F)N=C(N)S2)c(C)o1 [Example 41]"
  Value kind: "pIC50"
  Readout relation: "="
  Result number: 6.63
- Compound: "Cc1noc(C)c1[C@@H]1C[C@@](C)(c2cc(-c3cnc(F)nc3)c(F)cc2F)N=C(N)S1 [Example 46]"
  Value kind: "pIC50"
  Readout relation: "="
  Result number: 6.41
- Compound: "NC1=N[C@H](c2cccc(-c3cncnc3)c2)C[C@@H](c2c[nH]cn2)S1 (racemic) [Example 21]"
  Value kind: "pIC50"
  Readout relation: "<"
  Result number: 4.52
- Compound: "Cc1noc(C)c1[C@@H]1C[C@@H](c2cc(NC(=O)c3ccc(Cl)cn3)ccc2F)N=C(N)S1 (single isomer, unassigned) [Example 38A]"
  Value kind: "pIC50"
  Readout relation: "="
  Result number: 8.30
- Compound: "C[C@@]1(c2ccc(F)cc2F)C[C@@H](c2cncnc2)SC(N)=N1 [Example 62]"
  Value kind: "pIC50"
  Readout relation: "="
  Result number: 6.51
- Compound: "COc1ccc([C@@H]2C[C@@H](c3cccc(-c4cncnc4)c3)N=C(N)S2)cn1 [Example 10]"
  Value kind: "pIC50"
  Readout relation: "="
  Result number: 5.68
- Compound: "Cn1cc([C@@H]2C[C@@H](c3cccc(-c4cncnc4)c3)N=C(N)S2)cn1 (racemic) [Example 27]"
  Value kind: "pIC50"
  Readout relation: "="
  Result number: 5.59
